The reported measurements were obtained from patent US20230382911A1.

Target: Recombinant human Mat2a (Homo sapiens (Human))
Sequence (P31153 whole entry): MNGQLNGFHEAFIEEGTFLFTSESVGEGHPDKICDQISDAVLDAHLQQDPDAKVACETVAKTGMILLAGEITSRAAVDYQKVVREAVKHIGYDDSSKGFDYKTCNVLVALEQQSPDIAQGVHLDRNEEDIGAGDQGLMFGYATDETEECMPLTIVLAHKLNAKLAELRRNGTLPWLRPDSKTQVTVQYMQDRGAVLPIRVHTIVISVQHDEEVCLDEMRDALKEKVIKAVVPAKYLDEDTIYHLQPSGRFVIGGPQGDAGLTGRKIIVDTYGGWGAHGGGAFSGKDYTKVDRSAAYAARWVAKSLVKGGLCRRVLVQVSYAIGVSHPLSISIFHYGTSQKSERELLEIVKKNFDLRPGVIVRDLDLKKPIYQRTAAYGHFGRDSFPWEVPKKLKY
Experiment: Determination of Mat2A activity: 384 well format absorbance-based Mat2A inhibition assay
Details: 12.5 nM Mat2A, 100 μM ATP and Methionine, 2% DMSO, 120 minutes at RT, Biomol Green, absorbance at 635 nm
Description: Determination of Mat2A Activity Measurement of Mat2A inhibition is performed in 384 well format absorbance-based assay. Recombinant human Mat2a (12.5 nM) and serial diluted compounds in DMSO (range of concentrations from 10 μM to […]) or controls (DMSO) are incubated for 15 minutes at room temperature (RT) in assay buffer containing 50 mM HEPES pH 7.5, 50 mM KCl, 50 mM MgCl2, 0.01% Tween 20 and 10 mM DTT. […]
Readout name: IC50 (µM)
Provide only the numeric value, understood in µM.

# example entries with known answers
COc1ccccc1C(=O)n1nc(N)c2ccc(N3CCCC3)nc21    0.053
COc1ccccc1C(=O)n1nc(N)c2ccc(N3C4CCC3CC4)nc21    0.24
COc1c(C)cccc1C(=O)n1nc(N)c2ccc(C3CC3)nc21    0.18
Cc1ccccc1C(=O)n1nc(N)c2ccc(C3CC3(F)F)nc21 (stereo not drawn)    0.15
Cc1ccccc1C(=O)n1nc(N)c2ccc(C3CC3)nc21    0.16
Cc1nccnc1C(=O)n1nc(N)c2ccc(C3CC3)nc21    0.22
COc1ccccc1C(=O)n1nc(N)c2ccc(C3=CCCCC3)nc21    0.11
Nc1nn(C(=O)C2CCOCC2)c2nc(C3CC3)ccc12    0.049

Then there is this compound:
Ask: Look up IC50 for this compound: "COc1ccccc1C(=O)n1nc(N)c2cc3c(nc21)CC(C)(C)CC3"
Reply: 0.14
